# testedSystem: RhlR (Pseudomonas aeruginosa, UniProt P54292)
# Construct: an RhlR-AI2 controlled rhlI-gfp reporter, PAO-JP2 (prhlI-LVAgfp); endogenous in cells; host or cells: P. aeruginosa PAO-JP2 (prhlI-LVAgfp)
# Sequence (P54292 whole entry): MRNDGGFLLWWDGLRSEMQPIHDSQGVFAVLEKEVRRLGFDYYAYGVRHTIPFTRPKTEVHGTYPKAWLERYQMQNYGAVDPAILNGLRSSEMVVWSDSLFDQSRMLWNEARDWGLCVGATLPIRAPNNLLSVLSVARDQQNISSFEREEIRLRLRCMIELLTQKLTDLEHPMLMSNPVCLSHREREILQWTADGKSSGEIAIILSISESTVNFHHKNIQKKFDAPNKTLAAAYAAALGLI
# Assay type: cell-based, P. aeruginosa
# assayConditions: in the presence of 1 μM AI1; 10, 100, 400 μM analog
valueKind: AI2 agonist activity (induction of rhlI-gfp reporter)

{"molecule": "CCCC(=O)NC1CCCCC1=O (stereo not shown) [Compound 7, N-2-oxocyclohexylbutanamide]", "readoutValue": "strong agonist activity"}
{"molecule": "CCCC(=O)NC1CCCC1=O (stereo not shown) [Compound 5, N-2-oxocyclopentylbutanamide]", "readoutValue": "strong agonist activity"}

The measured values listed here are drawn from patent US7498292B2.
